All figures here come from patent US10233188B2.

EXPERIMENTAL TARGET: CDK6/Cyclin D1 (Homo sapiens (Human), UniProt Q00534)
Sequence (Q00534 whole entry): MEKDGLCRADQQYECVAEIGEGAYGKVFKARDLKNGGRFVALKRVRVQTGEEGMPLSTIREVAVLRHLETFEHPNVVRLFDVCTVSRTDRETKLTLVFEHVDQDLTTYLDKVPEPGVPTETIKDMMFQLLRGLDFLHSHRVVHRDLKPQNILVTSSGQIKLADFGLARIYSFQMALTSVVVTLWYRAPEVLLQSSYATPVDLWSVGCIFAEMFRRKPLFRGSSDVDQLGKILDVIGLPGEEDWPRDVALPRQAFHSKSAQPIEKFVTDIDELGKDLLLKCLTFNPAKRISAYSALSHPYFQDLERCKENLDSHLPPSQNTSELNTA
Sequence (P24385 whole entry partner): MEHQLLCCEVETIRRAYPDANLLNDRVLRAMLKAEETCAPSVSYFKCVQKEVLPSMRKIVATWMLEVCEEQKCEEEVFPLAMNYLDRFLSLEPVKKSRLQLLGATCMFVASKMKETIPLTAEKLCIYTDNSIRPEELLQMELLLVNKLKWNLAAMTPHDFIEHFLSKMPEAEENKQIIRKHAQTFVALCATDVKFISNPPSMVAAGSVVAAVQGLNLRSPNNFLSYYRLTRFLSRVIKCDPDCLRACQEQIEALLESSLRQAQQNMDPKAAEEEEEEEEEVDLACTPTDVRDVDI
EXPERIMENT: biochemical
EXPERIMENTAL PARAMETERS: CDK6_Ki (nM), non-phosphorylated CDK6/Cyclin D1, 2 mM ATP, Morrison fit
Would you mind telling me the reported Ki of each entry?
Numeric only. Scale: nM

Tell us which Ki value is on record for CS(=O)(=O)N1CCC(Nc2ncc3cc(Cl)c(=O)n([C@@H]4CC[C@@H](O)C4)c3n2)CC1 (single isomer, unassigned) [Example 170]
1.82

Tell us which Ki value is on record for Cc1cc2cnc(NC3CCN(S(C)(=O)=O)CC3)nc2n([C@H]2C[C@@H](O)C[C@H]2C)c1=O (single isomer, unassigned) [Example 200]
4.72

Tell us which Ki value is on record for COC(C)(C)CNS(=O)(=O)N1CCC(Nc2ncc3ccc(=O)n([C@H]4CCC[C@]4(C)O)c3n2)CC1 (single isomer, unassigned) [Example 61]
19.7

Tell us which Ki value is on record for C[C@@]1(O)CCC[C@H]1n1c(=O)ccc2cnc(NC3CCN(S(=O)(=O)CC4CC4)CC3)nc21 (single isomer, unassigned) [Example 90]
0.88

Tell us which Ki value is on record for COC(C)(C)CNS(=O)(=O)N1CCC(Nc2ncc3ccc(=O)n([C@@H]4CCC[C@@]4(C)O)c3n2)CC1 (single isomer, unassigned) [Example 60]
3.18

Tell us which Ki value is on record for CS(=O)(=O)CS(=O)(=O)N1CCC(Nc2ncc3ccc(=O)n(C4CCCC4)c3n2)CC1 [Example 18]
2.44

Tell us which Ki value is on record for CS(=O)(=O)N1CCC(Nc2ncc3ccc(=O)n([C@H]4CC[C@H](O)C4)c3n2)CC1 (single isomer, unassigned) [Example 53]
3.79

Tell us which Ki value is on record for C[C@H]1[C@@H](O)CC[C@@H]1n1c(=O)c(C(F)F)cc2cnc(NC3CCN(S(C)(=O)=O)CC3)nc21 (single isomer, unassigned) [Example 205]
1.27

Tell us which Ki value is on record for C[C@]1(O)CCC[C@@H]1n1c(=O)c(CC#N)cc2cnc(NC3CCN(S(C)(=O)=O)CC3)nc21 (single isomer, unassigned) [Example 121]
0.82

Tell us which Ki value is on record for Cc1cc2cnc(NC3CCN(S(C)(=O)=O)CC3)nc2n([C@@H]2CCC[C@H]2O)c1=O [Example 173]
3.52

Tell us which Ki value is on record for C[C@@]1(O)CCC[C@H]1n1c(=O)c(Cl)cc2cnc(N[C@H]3CCN(S(C)(=O)=O)C[C@H]3F)nc21 (single isomer, unassigned) [Example 191]
0.58

Tell us which Ki value is on record for CC(C)(O)CS(=O)(=O)N1CCC(Nc2ncc3ccc(=O)n(C4CCCC4)c3n2)CC1 [Example 17]
2.33

Tell us which Ki value is on record for CCS(=O)(=O)N1CCC(Nc2ncc3ccc(=O)n([C@@H]4CCC[C@@]4(C)O)c3n2)CC1 (single isomer, unassigned) [Example 76]
1.24
